protocol.details: Induction of singlet oxygen production in DMF under photoirradiation with 650nm in […] by UV-Visible spectrophotometric analysis
Format: functional
measured.parameter: Activity

smiles | result
O=C(O)CCCCNC(=O)c1ccc(C2=C3C=c4sc5cc(Br)sc5c4=[N+]3[B-](F)(F)n3c2cc2sc4cc(Br)sc4c23)cc1 | 0.28
O=C(O)c1cc(C(=O)O)cc(C2=C3C=c4sc5ccsc5c4=[N+]3[B-](F)(F)n3c2cc2sc4ccsc4c23)c1 | 0.06
Oc1ccc(C2=C3C=c4sc5ccsc5c4=[N+]3[B-](F)(F)n3c2cc2sc4ccsc4c23)cc1 | 0.02
O=C(O)CNC(=O)c1ccc(C2=C3C=c4sc5cc(Br)sc5c4=[N+]3[B-](F)(F)n3c2cc2sc4cc(Br)sc4c23)cc1 | 0.39
O=C(O)CCC(=O)CNC(=O)c1ccc(C2=C3C=c4sc5cc(Br)sc5c4=[N+]3[B-](F)(F)n3c2cc2sc4cc(Br)sc4c23)cc1 | 0.14
O=C(O)CCCNC(=O)c1ccc(C2=C3C=c4sc5cc(Br)sc5c4=[N+]3[B-](F)(F)n3c2cc2sc4cc(Br)sc4c23)cc1 | 0.17

Sample O=C(O)CCCOc1ccc(C2=C3C=c4sc5cc(Br)sc5c4=[N+]3[B-](F)(F)n3c2cc2sc4cc(Br)sc4c23)cc1 ; Activity observed: 0.1

According to the records, this compound O=C(O)CCCCCOc1ccc(C2=C3C=c4sc5cc(Br)sc5c4=[N+]3[B-](F)(F)n3c2cc2sc4cc(Br)sc4c23)cc1 displays Activity of 0.1
